- protocol_details: Cytotoxicity against human HEK293T cells assessed as reduction in cell viability incubated for 48 hrs by CCK-8 assay
- Format: toxicity, cell-based, HEK-293T
readout_type: CC50 at 48 h (µM)
Give the number; µM is assumed, so skip it.

// CC50 at 48 h lookup, key: CC(C)(C)c1ccc(C(=O)NC(=S)Nc2ccc(N)cc2)cc1
72.3

Please find the next compound below.
// CC50 at 48 h lookup, key: O=C1c2c(O)c(=O)ccn2N([C@@H]2c3ccccc3SCc3c2ccc(F)c3F)[C@@H]2COCCN12
63.1

* * *

- protocol_details: Cytotoxicity against dog MDCK cells assessed as reduction in cell viability incubated for 48 hrs by CCK-8 assay
- Format: toxicity, cell-based, Canis lupus familiaris
Reported values of CC50 at 48 h for individual entries

// CC50 at 48 h lookup, key: CC(C)(C)OC(=O)NCCCC[C@H](NC(=O)OC(C)(C)C)C(=O)NCCCCCCCC(=O)Nc1ccc(NC(=S)NC(=O)c2ccc(C(C)(C)C)cc2)cc1
> 200 µM

// CC50 at 48 h lookup, key: O=C1c2c(O)c(=O)ccn2N([C@@H]2c3ccccc3SCc3c2ccc(F)c3F)[C@@H]2COCCN12 [BALOXAVIR]
30.9 µM

Next:
// CC50 at 48 h lookup, key: CC(C)(C)c1ccc(C(=O)NC(=S)Nc2ccc(N)cc2)cc1
> 200 µM

// CC50 at 48 h lookup, key: CCOC(=O)C1=C[C@@H](OC(CC)CC)[C@H](NC(C)=O)[C@@H](N)C1 [OSELTAMIVIR]
> 200 µM

* * *

- Test system: Influenza B virus
- protocol_details: Anti-influenza activity against Influenza B virus Victoria/2/87 infected in HEK293T cells assessed as reduction in virus-induced cytopathic effect incubated for 48 hrs by CCK-8 assay
- Type: functional, organism-based
- experimental_context: Victoria/2/87, HEK-293T
readout_type: EC50

// worked examples, EC50 included
API: value(readout=EC50, system=Influenza B virus) for record CC(C)(C)OC(=O)NCCCC[C@H](NC(=O)OC(C)(C)C)C(=O)NCCCCCCCCC(=O)Nc1ccc(NC(=S)NC(=O)c2ccc(C(C)(C)C)cc2)cc1
167 nM

API: value(readout=EC50, system=Influenza B virus) for record CC(C)(C)c1ccc(C(=O)NC(=S)Nc2ccc(N)cc2)cc1
167 nM

Next:
API: value(readout=EC50, system=Influenza B virus) for record CC(C)(C)OC(=O)NCCCC[C@H](NC(=O)OC(C)(C)C)C(=O)NCCCCCCCC(=O)Nc1ccc(NC(=S)NC(=O)c2ccc(C(C)(C)C)cc2)cc1
67 nM

API: value(readout=EC50, system=Influenza B virus) for record NC(=O)c1nc(F)cnc1O
> 10000 nM

API: value(readout=EC50, system=Influenza B virus) for record O=C1c2c(O)c(=O)ccn2N([C@@H]2c3ccccc3SCc3c2ccc(F)c3F)[C@@H]2COCCN12
6 nM

* * *

- protocol_details: Stability in human plasma assessed as compound remaining measured after 120 mins by LC-MS/MS analysis
- Format: ADME, cell-free
- experimental_context: read-out: Stability
readout_type: remaining at 2 h (%)
Give the number; % is assumed, so skip it.

// remaining at 2 h lookup, key: CC(C)(C)c1ccc(C(=O)NC(=S)Nc2ccc(N)cc2)cc1
112

Next:
// remaining at 2 h lookup, key: CC(C)(C)OC(=O)NCCCC[C@H](NC(=O)OC(C)(C)C)C(=O)NCCCCCCCC(=O)Nc1ccc(NC(=S)NC(=O)c2ccc(C(C)(C)C)cc2)cc1
72

* * *

- protocol_details: Hepatic clearance in mouse liver microsomes preincubated for 5 mins followed by NADPH addition and measured for 45 mins by LC-MS analysis
- Format: ADME, Microsome
- experimental_context: time 50 min
Reported values of CLhep predicted for individual entries
Give the number; mL/min/kg is assumed, so skip it.

// CLhep predicted lookup, key: CC(C)(C)c1ccc(C(=O)NC(=S)Nc2ccc(N)cc2)cc1
66.1

Please find the next compound below.
// CLhep predicted lookup, key: CC(C)(C)OC(=O)NCCCC[C@H](NC(=O)OC(C)(C)C)C(=O)NCCCCCCCC(=O)Nc1ccc(NC(=S)NC(=O)c2ccc(C(C)(C)C)cc2)cc1
58.8

* * *

- protocol_details: Cytotoxicity against human HEK293T cells assessed as reduction in cell viability incubated for 48 hrs by CCK-8 assay
- Type: toxicity, cell-based, HEK-293T
Reported values of CC50 at 48 h for individual entries

// CC50 at 48 h lookup, key: NC(=O)c1nc(F)cnc1O
> 100 µM

// CC50 at 48 h lookup, key: CC(C)(C)OC(=O)N[C@@H](Cc1c[nH]c2ccccc12)C(=O)NCCCCCCCCCC(=O)Nc1ccc(NC(=S)NC(=O)c2ccc(C(C)(C)C)cc2)cc1
> 100 µM

// CC50 at 48 h lookup, key: CC(C)(C)OC(=O)N[C@@H](Cc1c[nH]c2ccccc12)C(=O)NCCCCCCC(=O)Nc1ccc(NC(=S)NC(=O)c2ccc(C(C)(C)C)cc2)cc1
> 100 µM

Next:
// CC50 at 48 h lookup, key: CC(C)(C)OC(=O)N[C@@H](Cc1c[nH]c2ccccc12)C(=O)NCCCCCCCCCCCC(=O)Nc1ccc(NC(=S)NC(=O)c2ccc(C(C)(C)C)cc2)cc1
> 100 µM

// CC50 at 48 h lookup, key: CC(C)(C)c1ccc(C(=O)NC(=S)Nc2ccc(NC(=O)CCCCCCCCN)cc2)cc1
6.47 µM

// CC50 at 48 h lookup, key: CC(C)(C)OC(=O)N[C@@H](Cc1c[nH]c2ccccc12)C(=O)NCCCCCC(=O)Nc1ccc(NC(=S)NC(=O)c2ccc(C(C)(C)C)cc2)cc1
> 100 µM

// CC50 at 48 h lookup, key: CC(C)(C)OC(=O)N[C@@H](Cc1c[nH]c2ccccc12)C(=O)NCCCCCCCCCCC(=O)Nc1ccc(NC(=S)NC(=O)c2ccc(C(C)(C)C)cc2)cc1
41.8 µM

// CC50 at 48 h lookup, key: CC(C)(C)c1ccc(C(=O)NC(=S)Nc2ccc(NC(=O)CCCCCCCCCN)cc2)cc1
< 6.29 µM

* * *

Reported values of selectivity ratio for individual entries
- protocol_details: Selectivity index, ratio of CC50 for cytotoxicity against human HEK293T cells to EC50 for anti-influenza activity against Influenza A virus A/WSN/33(H1N1) infected in HEK293T cells assessed as reduction in virus-induced cytopathic effect
- Assay type: toxicity, cell-based
- experimental_context: read-out: Ratio CC50/EC50

// worked examples, selectivity ratio included
// selectivity ratio lookup, key: CC(C)(C)OC(=O)N[C@@H](Cc1c[nH]c2ccccc12)C(=O)NCCCCCCCCCC(=O)Nc1ccc(NC(=S)NC(=O)c2ccc(C(C)(C)C)cc2)cc1
> 1560

// selectivity ratio lookup, key: CC(C)(C)OC(=O)N[C@@H](Cc1c[nH]c2ccccc12)C(=O)NCCCCCCCCCCC(=O)Nc1ccc(NC(=S)NC(=O)c2ccc(C(C)(C)C)cc2)cc1
109

Next:
// selectivity ratio lookup, key: CC(C)(C)OC(=O)NCCCC[C@H](NC(=O)OC(C)(C)C)C(=O)NCCCCCCCCCCCC(=O)Nc1ccc(NC(=S)NC(=O)c2ccc(C(C)(C)C)cc2)cc1
> 187

// selectivity ratio lookup, key: CC(C)(C)OC(=O)N[C@@H](Cc1c[nH]c2ccccc12)C(=O)NCCCCCCC(=O)Nc1ccc(NC(=S)NC(=O)c2ccc(C(C)(C)C)cc2)cc1
> 592

* * *

- protocol_details: Half life in human plasma by LC-MS/MS analysis
- Assay type: ADME, cell-free
Reported values of half-life for individual entries
Give the number; h is assumed, so skip it.

// half-life lookup, key: CCN(CC)CCOC(=O)c1ccc(N)cc1 [PROCAINE]
0.0187

Please find the next molecule below.
// half-life lookup, key: CC(C)(C)OC(=O)NCCCC[C@H](NC(=O)OC(C)(C)C)C(=O)NCCCCCCCC(=O)Nc1ccc(NC(=S)NC(=O)c2ccc(C(C)(C)C)cc2)cc1
4.09

* * *

- target_or_test_system: von Hippel-Lindau disease tumor suppressor/Polymerase basic protein 1 (Influenza A virus (strain A/Puerto Rico/8/1934 H1N1)) (UniProt P03431+P40337)
- Sequence (P03431 whole entry, looked up): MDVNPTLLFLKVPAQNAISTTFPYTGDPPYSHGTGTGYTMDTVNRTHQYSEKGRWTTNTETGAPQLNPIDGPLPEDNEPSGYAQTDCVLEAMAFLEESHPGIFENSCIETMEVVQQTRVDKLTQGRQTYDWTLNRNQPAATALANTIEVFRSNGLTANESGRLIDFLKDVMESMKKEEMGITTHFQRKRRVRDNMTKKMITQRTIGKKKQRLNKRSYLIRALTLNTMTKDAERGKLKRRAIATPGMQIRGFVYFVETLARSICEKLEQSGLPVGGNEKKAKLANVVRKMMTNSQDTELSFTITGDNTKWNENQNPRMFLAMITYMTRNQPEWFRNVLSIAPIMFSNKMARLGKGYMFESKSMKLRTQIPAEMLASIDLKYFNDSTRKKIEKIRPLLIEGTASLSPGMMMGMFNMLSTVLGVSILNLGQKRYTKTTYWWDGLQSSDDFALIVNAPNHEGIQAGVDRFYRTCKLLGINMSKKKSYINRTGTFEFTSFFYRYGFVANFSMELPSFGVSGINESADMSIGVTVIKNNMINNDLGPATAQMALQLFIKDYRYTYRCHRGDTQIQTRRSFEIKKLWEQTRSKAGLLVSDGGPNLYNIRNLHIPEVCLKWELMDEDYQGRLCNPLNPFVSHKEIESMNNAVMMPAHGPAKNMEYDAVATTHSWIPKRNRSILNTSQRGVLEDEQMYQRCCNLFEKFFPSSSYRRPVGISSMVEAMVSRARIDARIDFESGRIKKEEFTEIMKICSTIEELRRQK
- Sequence (P40337 whole entry, looked up): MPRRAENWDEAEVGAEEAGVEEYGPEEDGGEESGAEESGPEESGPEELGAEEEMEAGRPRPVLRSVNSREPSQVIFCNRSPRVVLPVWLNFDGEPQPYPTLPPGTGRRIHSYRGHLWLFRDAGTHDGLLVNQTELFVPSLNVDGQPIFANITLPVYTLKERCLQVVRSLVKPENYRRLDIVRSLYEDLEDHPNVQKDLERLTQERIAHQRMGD
- protocol_details: PROTAC activity at Influenza A virus A/WSN/33(H1N1) flag tagged Polymerase basic protein 1/VHL (unknown origin) expressed in HEK293T cells assessed as degradation of PB1 expression at 1 ug/ml incubated for 24 hrs by Western blotting analysis
- Type: cell-based
- experimental_context: dose 1.0 µg/ml
Calls of active or inactive are those of the source. The calls are words filed in the database; no cut-off is given here.
readout_type: Activity

// Activity lookup, key: CC(C)(C)OC(=O)NCCCC[C@H](NC(=O)OC(C)(C)C)C(=O)NCCCCCCCCCCCC(=O)Nc1ccc(NC(=S)NC(=O)c2ccc(C(C)(C)C)cc2)cc1
inactive

// Activity lookup, key: CC(C)(C)OC(=O)NCCCC[C@H](NC(=O)OC(C)(C)C)C(=O)NCCCCCCCCC(=O)Nc1ccc(NC(=S)NC(=O)c2ccc(C(C)(C)C)cc2)cc1
inactive

// Activity lookup, key: CC(C)(C)OC(=O)N[C@@H](Cc1c[nH]c2ccccc12)C(=O)NCCCCCCCCCCC(=O)Nc1ccc(NC(=S)NC(=O)c2ccc(C(C)(C)C)cc2)cc1
inactive
